measured-target: thromboxane A2 receptor (TP) (Homo sapiens)
Construct: using human platelets as the source of the receptor
Sequence (P21731 1-343): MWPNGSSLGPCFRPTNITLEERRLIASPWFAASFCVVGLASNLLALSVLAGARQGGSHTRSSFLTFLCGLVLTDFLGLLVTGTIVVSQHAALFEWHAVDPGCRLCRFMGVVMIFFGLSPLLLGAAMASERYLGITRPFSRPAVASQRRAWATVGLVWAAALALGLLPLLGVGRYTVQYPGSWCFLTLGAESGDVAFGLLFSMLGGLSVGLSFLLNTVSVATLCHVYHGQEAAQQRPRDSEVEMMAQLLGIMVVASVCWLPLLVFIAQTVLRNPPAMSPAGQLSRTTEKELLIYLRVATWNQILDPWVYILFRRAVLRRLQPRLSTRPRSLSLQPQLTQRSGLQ
assay-protocol: Human Thromboxane A2 Receptor Binding Assay
measurement-conditions: human platelets; 10 nM [3H]SQ29548; 1 hour, room temperature
property-name: pIC50
Just so you know, pIC50 here is -log10 of the concentration in molar units; reply with that number alone.

What the record says about O=C(O)COc1cccc2c1CCCCC2NS(=O)(=O)c1cc(C(F)(F)F)cc(C(F)(F)F)c1 (centres unmarked) [Example 1] : pIC50 is 6.19

What the record says about O=C(O)COc1cccc2c1CCCCC2NS(=O)(=O)c1cc(C(F)(F)F)cc(C(F)(F)F)c1 (single isomer, unassigned) [Example 46] : pIC50 is 5.44
